target: human ether-à-go-go-related gene (hERG) potassium channel (human, UniProt Q12809); experiment: primary screen, population patch clamp on CHO cells stably expressing hERG; higher = less effect of the substance;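 also: peak tail current of the secondary pulse compared with the same well before compound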
Sequence (Q12809 whole entry, looked up): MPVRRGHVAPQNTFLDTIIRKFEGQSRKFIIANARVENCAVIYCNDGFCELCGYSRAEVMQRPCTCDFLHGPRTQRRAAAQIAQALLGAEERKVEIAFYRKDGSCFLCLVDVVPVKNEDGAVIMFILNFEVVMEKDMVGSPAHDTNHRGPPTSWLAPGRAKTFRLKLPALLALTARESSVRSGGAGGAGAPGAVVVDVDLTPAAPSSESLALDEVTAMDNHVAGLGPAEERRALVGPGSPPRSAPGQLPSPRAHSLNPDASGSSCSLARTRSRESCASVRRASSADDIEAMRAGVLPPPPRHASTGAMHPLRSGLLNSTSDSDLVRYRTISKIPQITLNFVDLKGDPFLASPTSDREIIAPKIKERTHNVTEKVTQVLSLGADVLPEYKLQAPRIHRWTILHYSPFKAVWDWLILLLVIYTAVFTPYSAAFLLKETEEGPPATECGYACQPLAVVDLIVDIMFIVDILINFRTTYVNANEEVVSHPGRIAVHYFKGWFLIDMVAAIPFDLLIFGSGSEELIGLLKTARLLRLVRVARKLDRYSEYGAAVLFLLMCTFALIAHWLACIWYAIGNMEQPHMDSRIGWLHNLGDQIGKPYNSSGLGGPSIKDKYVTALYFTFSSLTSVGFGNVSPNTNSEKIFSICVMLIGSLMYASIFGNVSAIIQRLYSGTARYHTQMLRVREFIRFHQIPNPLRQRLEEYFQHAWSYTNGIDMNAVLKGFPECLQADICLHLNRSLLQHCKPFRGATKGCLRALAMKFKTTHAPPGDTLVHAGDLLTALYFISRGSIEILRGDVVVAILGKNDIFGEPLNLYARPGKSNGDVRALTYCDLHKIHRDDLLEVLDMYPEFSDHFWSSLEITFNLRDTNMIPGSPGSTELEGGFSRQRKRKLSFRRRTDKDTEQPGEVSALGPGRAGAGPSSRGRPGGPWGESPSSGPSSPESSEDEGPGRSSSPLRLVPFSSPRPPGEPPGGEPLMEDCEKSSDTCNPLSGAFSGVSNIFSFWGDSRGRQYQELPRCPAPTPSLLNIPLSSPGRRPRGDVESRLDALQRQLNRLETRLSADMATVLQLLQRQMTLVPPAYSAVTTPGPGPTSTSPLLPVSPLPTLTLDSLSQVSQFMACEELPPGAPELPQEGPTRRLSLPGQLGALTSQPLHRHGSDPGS
Among all 310,000 compounds or so, about 14,000 (4.5%) showed an effect of 50% or more. The effect is printed as a negative number. The full list was thinned out, with strong results kept by preference.
attributeMeasured: hERG current change (%, negative = inhibition) at 10uM

Cn1ccnc1SCCNC(=O)CCc1nnc(CCc2ccccc2)o1; -10.2%

Quick batch: hERG current change (%, negative = inhibition) at 10uM for everything below.
1. Cc1ccc(-c2csc(NC(=O)c3ccc4c(=O)n5c(nc4c3)CCCCC5)n2)cc1
2. CCOC(=O)CN1CC23C=CC(O2)C(C(=O)Nc2ccc4c(c2)OCO4)C3C1=O (centres unmarked)

Result block:
1. -6.65%
2. 4.95%

Dear colleague, could you please provide hERG current change (%, negative = inhibition) at 10uM for the compounds listed below?
1. CCc1ccc(CN(C)C(=O)c2cc(S(=O)(=O)N3CCOCC3)ccc2N2CCCC2)cc1
2. NS(=O)(=O)c1cccc(NC(=O)COC(=O)CNC(=O)c2ccc(-c3ccccc3)cc2)c1

Result block:
["-50.1%", "5.77%"]

# batch size: 2; output hERG current change (%, negative = inhibition) at 10uM per entry
1. Cc1cccc(N(CC(O)CON=C2c3ccccc3-c3ccccc32)S(C)(=O)=O)c1 (centres unmarked)
2. O=C(Nc1ccc(-c2csc(Nc3cccc(C(F)(F)F)c3)n2)cc1)c1cccc(C(F)(F)F)c1

Result block:
15.1%
9.98%

Quick request: hERG current change (%, negative = inhibition) at 10uM for each listed item, please.
1. COC(=O)c1cc(Br)c(=O)n(-c2ccc(OC)cc2)c1
2. CN(C)S(=O)(=O)c1ccc(C(=O)Nc2nnc(-c3ccco3)o2)cc1
3. Cc1cc(C)c2nc(NC(=O)c3ccc4c(=O)n5c(nc4c3)CCCCC5)sc2c1

Result block:
1. -0.31%
2. 12.4%
3. 13.9%

Consider the following items and state reported hERG current change (%, negative = inhibition) at 10uM for each.
1. COC(=O)c1cc(Br)c(=O)n(CCc2ccc(F)cc2)c1
2. C=CCOc1ccc(Br)cc1CNC(C)(C)C.Cl
3. COC(=O)c1cc(Br)c(=O)n(-c2ccc(F)cc2)c1
4. COC(=O)c1ccccc1NC(=S)N(Cc1ccc2c(c1)OCO2)Cc1cc2ccc(OC)cc2[nH]c1=O
5. CCN1CCCC1CN(Cc1cc2ccc(C)cc2[nH]c1=O)C(=S)Nc1ccccc1OC (centres unmarked)

Result block:
1: -24.9%; 2: -14.7%; 3: -63.9%; 4: -13.6%; 5: 46.7%

Below is a list of compounds. For each, state its recorded hERG current change (%, negative = inhibition) at 10uM.
1. COC(=O)c1ccccc1NC(=S)N(Cc1ccc2c(c1)OCO2)Cc1cc2ccc(C)cc2[nH]c1=O
2. COC(=O)c1ccccc1NC(=S)N(Cc1ccc2c(c1)OCO2)Cc1cc2cc(OC)ccc2[nH]c1=O

Result block:
15.1%
8.29%

Batch request: hERG current change (%, negative = inhibition) at 10uM per item, same order as input.
1. CCN1CCCC1CN(Cc1cc2ccc(C)cc2[nH]c1=O)C(=S)Nc1ccc(OC)cc1OC (centres unmarked)
2. COC(=O)c1ccccc1NC(=S)N(Cc1ccc2c(c1)OCO2)Cc1cc2cc(C)ccc2[nH]c1=O
3. CCCCOC(=O)n1c(SCC(=O)N(CC)CC)nc2ccccc21

Result block:
["-74.5%", "0.949%", "-34.7%"]

Could I get hERG current change (%, negative = inhibition) at 10uM for every one of these entries?
1. CCN1CCCC1CNC(=O)C(=O)NC(C)c1ccccc1 (centres unmarked)
2. Cc1ccc2cc(CN(CC3CCCO3)C(=S)Nc3ccccc3)c(=O)[nH]c2c1 (centres unmarked)
3. CC(=O)C(Sc1nnnn1-c1ccc(O)cc1)c1ccccc1 (centres unmarked)
4. CCN1CCCC1CN(Cc1cc2ccc(C)cc2[nH]c1=O)C(=S)Nc1ccccc1C(=O)OC (centres unmarked)
5. O=C(Nc1ccccc1Cl)c1ccc2c(=O)n3c(nc2c1)CCC3
6. CN(Cc1ccc(Cl)cc1)C(=O)c1cc(S(=O)(=O)N2CCOCC2)ccc1N1CCCC1
7. COc1ccc(-c2ccc(SCC(=O)c3ccccc3)nn2)cc1OC

Result block:
13%
-37%
-14.3%
-85.2%
-6.14%
-72.8%
-15.7%

Values were extracted from paper PMC4336329.
